The values you see were collected from patent US12630630.

biological target: T1, CD47 on human cells (Raji, Jurkat, red blood cells) (human, UniProt Q08722 19-311); assay: flow cytometry competition: antibody and a fixed concentration of biotin-human SIRPα-Fc co-incubated with CD47-expressing cells (Jurkat in Example 2; the legend also names Raji), streptavidin-PE
T1 construct: Endogenous CD47 on Raji, Jurkat and red blood cells; also called IAP; MER6
Items are presented alongside their recorded IC50 (read off the curve).

Sample records with IC50 (read off the curve):
[[record]]
binder = "Clone M1 #11 (antibody, human IgG4 S228P, lambda, V domains shown) VH: QVQLQQWGAGLLKPSETLSLTCAVYGGSFSGYYWSWIRQPPGKGLEWIGEINHSGSTNYNPSLKSRVTISVDTSKNQFSLRLSSVTAADTAMYYCARFHGRPYYGMDVWGQGTTVTVSS VL: LSYELTQPPSVSATPGQRVTISCSGSESNIGSHKVKWYQQFAGAAPRLLIHGNDQRRRGVPDRFSGSKSGTSASLAISGLQSEDEADYYCAAWDDSLYGRVFGGGTKLTVLG"
endpoint_value = "~0.06 µg/mL"

[[record]]
binder = "Clone M1 #21 (antibody, human IgG4 S228P, lambda, V domains shown) VH: QVQLQQWGAGLLKPSETLSLTCAVYGGSFSGYYWSWIRQPPGKGLEWIGEINQSGSTNYNPSLKSRVTISVDTSKNQFSLRLSSVTAADTAMYYCARFTGRPYYGMDVWGQGTTVTVSS VL: LSYELTQPPSVSATPGQRVTISCSGSESNIGSHKVKWYQQFAGAAPRLLIHGNDQRFSGVPDRFSGSKSGTSASLAISGLQSEDEADYYCAAWDDSLYGRVFGGGTKLTVLG"
endpoint_value = "~0.08 µg/mL"

[[record]]
binder = "Clone M1 (antibody, human IgG4 S228P, lambda, V domains shown, also called antibody clone M1) VH: QVQLQQWGAGLLKPSETLSLTCAVYGGSFSGYYWSWIRQPPGKGLEWIGEINHSGSTNYNPSLKSRVTISVDTSKNQFSLRLSSVTAADTAMYYCARFTGRPYYGMDVWGQGTTVTVSS VL: LSYELTQPPSVSATPGQRVTISCSGSESNIGSHKVKWYQQFAGAAPRLLIHGNDQRRSGVPDRFSGSKSGTSASLAISGLQSEDEADYYCAAWDDSLNGRVFGGGTKLTVLG"
endpoint_value = "~1 µg/mL"


Next binder, IC50 (read off the curve) to be filled in.
# query: IC50 (read off the curve) of entry Clone M1 #46 (antibody, human IgG4 S228P, lambda, V domains shown) VH: QVQLQQWGAGLLKPSETLSLTCAVYGGSFSGYYWSWIRQPPGKGLEWIGEINHSGSTNYNPSLKSRVTISVDTSKNQFSLRLSSVTAADTAMYYCARFSGRPYYGMDVWGQGTTVTVSS VL: LSYELTQPPSVSATPGQRVTISCSGSESNIGSHKVKWYQQFAGAAPRLLIHGNDQRRSGVPDRFSGSKSGTSASLAISGLQSEDEADYYCAAWDDSLYGRVFGGGTKLTVLG
~0.2 µg/mL
